Data origin, for the record: ChEMBL document CHEMBL1148238

# Test system: MCF7
# measurement-protocol: Cytotoxicity of compound against MCF-7 cell line
# Type: functional, cell-based
# reported-conditions: Homo sapiens
quantity-measured: IC50 (nM)
Express it in nM; write the number only.

// query Given "C=C/C=C\[C@H](C)[C@H](OC(N)=O)[C@@H](C)[C@H](O)[C@@H](C)C/C(C)=C\[C@H](C)[C@@H](O)[C@@H](C)/C=C\CCc1cccc(Cl)c1" , state its recorded IC50.
// result 400

// query Given "C=C/C=C\[C@H](C)[C@H](OC(N)=O)[C@@H](C)[C@H](O)[C@@H](C)C/C(C)=C\[C@H](C)[C@@H](O)[C@@H](C)/C=C\CCc1cccc(F)c1" , state its recorded IC50.
// result 370

// query Given "C=C/C=C\[C@H](C)[C@H](OC(N)=O)[C@@H](C)[C@H](O)[C@@H](C)C/C(C)=C\[C@H](C)[C@@H](O)[C@@H](C)/C=C\CCc1sccc1C" , state its recorded IC50.
// result 370

* * *

# Tested on: MCF7
# measurement-protocol: Cytotoxicity of compound against MCF-7 cell line
# Type: functional, cell-based
# reported-conditions: Homo sapiens
# label = T if IC50 < 500 nM else F

Check out these entries, answers already filled in.
chemical-smiles	target-entity	label-class
C=C/C=C\[C@H](C)[C@H](OC(N)=O)[C@@H](C)[C@H](O)[C@@H](C)C/C(C)=C\[C@H](C)[C@@H](O)[C@@H](C)/C=C\CCc1cccc(O)c1	MCF7	T
C=C/C=C\[C@H](C)[C@H](OC(N)=O)[C@@H](C)[C@H](O)[C@@H](C)C/C(C)=C\[C@H](C)[C@@H](O)[C@@H](C)/C=C\CCc1ccc(C)c(O)c1	MCF7	F
C=C/C=C\[C@H](C)[C@H](OC(N)=O)[C@@H](C)[C@H](O)[C@@H](C)C/C(C)=C\[C@H](C)[C@@H](O)[C@@H](C)/C=C\CCc1ccccc1	MCF7	T
C=C/C=C\[C@H](C)[C@H](OC(N)=O)[C@@H](C)[C@H](O)[C@@H](C)C/C(C)=C\[C@H](C)[C@@H](O)[C@@H](C)/C=C\CCc1cccc(OC)c1	MCF7	T
C=C/C=C\[C@H](C)[C@H](OC(N)=O)[C@@H](C)[C@H](O)[C@@H](C)C/C(C)=C\[C@H](C)[C@@H](O)[C@@H](C)/C=C\CCc1ccc(C)c(F)c1	MCF7	F

// query Strictly below 500 nM: is that where IC50 of "C=C/C=C\[C@H](C)[C@H](OC(N)=O)[C@@H](C)[C@H](O)[C@@H](C)C/C(C)=C\[C@H](C)[C@@H](O)[C@@H](C)/C=C\CCc1cc(F)cc(F)c1" sits?
// result F

* * *

# System: MCF7
# measurement-protocol: Cytotoxicity of compound against MCF-7 cell line
# Assay type: functional, cell-based
# reported-conditions: Homo sapiens
quantity-measured: IC50
Kindly report the value followed by its unit.

Sample answers from the record:
chemical-smiles	IC50
C=C/C=C\[C@H](C)[C@H](OC(N)=O)[C@@H](C)[C@H](O)[C@@H](C)C/C(C)=C\[C@H](C)[C@@H](O)[C@@H](C)/C=C\CCc1ccc(Oc2ccccc2)cc1	4000 nM
C=C/C=C\[C@H](C)[C@H](OC(N)=O)[C@@H](C)[C@H](O)[C@@H](C)C/C(C)=C\[C@H](C)[C@@H](O)[C@@H](C)/C=C\CCc1ccsc1	850 nM

// next item, IC50 requested
// query Given "C=C/C=C\[C@H](C)[C@H](OC(N)=O)[C@@H](C)[C@H](O)[C@@H](C)C/C(C)=C\[C@H](C)[C@@H](O)[C@@H](C)/C=C\CCc1cc(O)cc(O)c1" , state its recorded IC50.
// result 160 nM
